- target_or_test_system: ZFP SBS#1267 (synthetic)
- Sequence (chain, as listed by the source): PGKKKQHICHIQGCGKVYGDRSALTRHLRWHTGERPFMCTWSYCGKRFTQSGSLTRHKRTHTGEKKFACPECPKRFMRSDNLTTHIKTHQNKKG
- assay_info: EMSA
- assay_setup: tags: MBP fusion
observable: Kd (nM)
Provide only the numeric value, understood in nM.

Which Kd reading was recorded for the binder TAGGCAGTC (dsDNA) DNA 1: TAGGCAGTC DNA 2: GACTGCCTA ?
6
